The entries below come with measured EC50 values attached.
Target: mineralocorticoid receptor (MR) (Homo sapiens, UniProt P08235)
Sequence (P08235 726-984): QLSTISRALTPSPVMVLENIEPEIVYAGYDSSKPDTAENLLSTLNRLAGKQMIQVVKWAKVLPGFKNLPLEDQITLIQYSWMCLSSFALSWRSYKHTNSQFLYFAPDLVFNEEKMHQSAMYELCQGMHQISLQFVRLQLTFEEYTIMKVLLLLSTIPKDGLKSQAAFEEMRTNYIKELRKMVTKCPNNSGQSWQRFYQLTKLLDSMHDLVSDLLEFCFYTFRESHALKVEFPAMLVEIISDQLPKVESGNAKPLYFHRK
Test: Assay for agonist activity on mineralocorticoid receptor (luciferase reporter, HEK293 cells transfected with pBIND-MR plasmid)
Type: cell-based

>  <compound>
C[C@]12C=CC(=O)C=C1[C@@H](F)C[C@H]1[C@@H]3C[C@H]4OC(c5ccc(CSC6CCOC6=O)cc5)O[C@@]4(C(=O)OCF)[C@@]3(C)C[C@H](O)[C@@]12F (stereo partly shown) [Compound 36]

>  <target_or_test_system>
mineralocorticoid receptor (MR) (Homo sapiens, UniProt P08235)

>  <EC50>
> 50 µM

$$$$
>  <compound>
C[C@]12C=CC(=O)C=C1CC[C@H]1[C@@H]3C[C@H]4OC(c5ccc(COC6CCOC6=O)cc5)O[C@@]4(C(=O)CO)[C@@]3(C)C[C@H](O)[C@@]12F (stereo partly shown) [Compound 16]

>  <target_or_test_system>
mineralocorticoid receptor (MR) (Homo sapiens, UniProt P08235)

>  <EC50>
> 50 µM

$$$$
>  <compound>
C[C@]12C=CC(=O)C=C1CC[C@H]1[C@@H]3C[C@H]4OC(c5ccc(COC6CCOC6=O)cc5)O[C@@]4(C(=O)CO)[C@@]3(C)C[C@H](O)[C@@]12Cl (stereo partly shown) [Compound 22]

>  <target_or_test_system>
mineralocorticoid receptor (MR) (Homo sapiens, UniProt P08235)

>  <EC50>
> 50 µM

$$$$
>  <compound>
C[C@]12C=CC(=O)C=C1[C@@H](F)C[C@H]1[C@@H]3C[C@H]4OC(c5ccc(CSC6CCOC6=O)cc5)O[C@@]4(C(=O)SCF)[C@@]3(C)C[C@H](O)[C@@]12F (stereo partly shown) [Compound 34]

>  <target_or_test_system>
mineralocorticoid receptor (MR) (Homo sapiens, UniProt P08235)

>  <EC50>
> 50 µM

$$$$

----------
Target: glucocorticoid receptor (GR) (Homo sapiens, UniProt P04150)
Sequence (P04150 521-777): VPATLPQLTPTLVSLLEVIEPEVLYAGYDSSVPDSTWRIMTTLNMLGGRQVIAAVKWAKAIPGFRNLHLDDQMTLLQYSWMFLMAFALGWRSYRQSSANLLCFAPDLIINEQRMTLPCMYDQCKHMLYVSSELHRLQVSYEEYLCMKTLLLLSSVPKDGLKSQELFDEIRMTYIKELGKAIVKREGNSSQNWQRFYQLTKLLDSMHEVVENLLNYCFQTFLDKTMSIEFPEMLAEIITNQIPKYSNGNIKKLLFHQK
Assay: Assay for agonist activity on glucocorticoid receptor (luciferase reporter, HEK293 cells transfected with pBIND-GR plasmid)
Type: cell-based
Conditions: GR agonist EC50 (nM), HEK293 cells transfected with pBIND-GR, luciferase signal
Method: Pharmacological Example 1: Assay for Agonist Activity on Glucocorticoid Receptor (GR) […] HEK293 cells were digested and seeded into 6-cm culture dishes. […] The cells were resuspended in phenol red-free DMEM medium containing 5% charcoal-stripped serum, counted, and then seeded into 96-well plates. […] The luminescence signal values were measured using a multimode microplate reader following the instructions of the luciferase assay kit. […]

>  <compound>
C[C@]12C=CC(=O)C=C1[C@@H](F)C[C@H]1[C@@H]3C[C@H]4OC(c5ccc(CSC6CCOC6=O)cc5)O[C@@]4(C(=O)OCC#N)[C@@]3(C)C[C@H](O)[C@@]12F (some centres unmarked)

>  <EC50 (nM)>
0.78

$$$$
>  <compound>
C[C@]12C=CC(=O)C=C1[C@@H](F)C[C@H]1[C@@H]3C[C@H]4OC(c5ccc(CSC6CCOC6=O)nc5)O[C@@]4(C(=O)CO)[C@@]3(C)C[C@H](O)[C@@]12F (some centres unmarked)

>  <EC50 (nM)>
0.23

$$$$
>  <compound>
C[C@]12C=CC(=O)C=C1CC[C@H]1[C@@H]3C[C@H]4OC(c5ccc(CSC6CCOC6=O)cn5)O[C@@]4(C(=O)CO)[C@@]3(C)C[C@H](O)[C@@]12Cl (some centres unmarked)

>  <EC50 (nM)>
0.82

$$$$
>  <compound>
C[C@]12C=CC(=O)C=C1[C@@H](F)C[C@H]1[C@@H]3C[C@H]4OC(c5ccc(CSC6CCOC6=O)cc5)O[C@@]4(C(=O)SCC#N)[C@@]3(C)C[C@H](O)[C@@]12F (some centres unmarked)

>  <EC50 (nM)>
0.21

$$$$
>  <compound>
C[C@]12C=CC(=O)C=C1CC[C@H]1[C@@H]3C[C@H]4OC(c5ccc(CSC6COC(=O)C6)cc5)O[C@@]4(C(=O)CO)[C@@]3(C)C[C@H](O)[C@@]12Cl (some centres unmarked)

>  <EC50 (nM)>
0.37

$$$$
